Where do these numbers come from? They come from patent US20230012273A1.

Measured Target: T1, human SIRPβL/SIRPβ1v3 extracellular domain + His-tag (NP_001129316.1) (human, UniProt Q5TFQ8 30-371)
T1 construct: also called hSIRPβ1v3; HuSIRPβ1v3
T1 sequence (Q5TFQ8 other isoform, or with tags, fused parts or gaps): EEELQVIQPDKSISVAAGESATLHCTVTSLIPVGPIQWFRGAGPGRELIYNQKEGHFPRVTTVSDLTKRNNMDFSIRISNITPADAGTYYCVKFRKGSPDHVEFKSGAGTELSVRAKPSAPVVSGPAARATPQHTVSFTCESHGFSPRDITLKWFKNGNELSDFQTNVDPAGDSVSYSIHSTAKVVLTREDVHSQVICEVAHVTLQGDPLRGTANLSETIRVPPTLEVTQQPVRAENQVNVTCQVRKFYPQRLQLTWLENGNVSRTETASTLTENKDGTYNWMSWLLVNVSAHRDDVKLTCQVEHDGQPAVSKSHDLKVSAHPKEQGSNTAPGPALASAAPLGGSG
Measurement Notes: SPR, Ab captured, ECD-His analyte
Result Type: Kd (nM)
Numbers only; they are read as nM.

Report Kd for Antibody E22 (antibody, human IgG1, kappa, L234A L235A, V domains shown) VH: QVQLQESGPGLVKPSETLSLTCTVSGGSIRDYYWSWIRQPPGKGLEWIGFIYYNGRTFYQSSLKSRVTISLDTSKNQFSLKMTSVTAADTAVYYCARVRAYSGIGLDGTDVWGQGTTVTVSS VL: DIVMTQSPLSLPVTPGEPASISCRSSQSLLYSTGYTYLDWYLQRPGQSPQLLIYGGSSRASGVPDRFSGSGSGTDFTLKISRVEAEDVGVFYCGQALQTPLTFGQGTKVEIKR
3.19
